Where these numbers come from: patent US7326786B2

Consider the following compounds and their measured Ki readings.
Biological target: recombinant human CDK1/Cyclin B complex (Homo sapiens)
Construct: E. coli M15 for the Rb substrate
Sequence (P06493 whole entry): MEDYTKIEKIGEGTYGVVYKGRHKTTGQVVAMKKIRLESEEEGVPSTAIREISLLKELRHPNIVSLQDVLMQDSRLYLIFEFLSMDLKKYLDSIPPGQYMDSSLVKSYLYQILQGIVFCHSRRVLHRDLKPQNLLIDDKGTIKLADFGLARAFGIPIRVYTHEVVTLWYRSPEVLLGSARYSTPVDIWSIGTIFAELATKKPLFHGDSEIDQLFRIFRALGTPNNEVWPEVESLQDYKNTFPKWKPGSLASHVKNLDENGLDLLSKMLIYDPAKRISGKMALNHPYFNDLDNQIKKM
Sequence (P14635 whole entry partner): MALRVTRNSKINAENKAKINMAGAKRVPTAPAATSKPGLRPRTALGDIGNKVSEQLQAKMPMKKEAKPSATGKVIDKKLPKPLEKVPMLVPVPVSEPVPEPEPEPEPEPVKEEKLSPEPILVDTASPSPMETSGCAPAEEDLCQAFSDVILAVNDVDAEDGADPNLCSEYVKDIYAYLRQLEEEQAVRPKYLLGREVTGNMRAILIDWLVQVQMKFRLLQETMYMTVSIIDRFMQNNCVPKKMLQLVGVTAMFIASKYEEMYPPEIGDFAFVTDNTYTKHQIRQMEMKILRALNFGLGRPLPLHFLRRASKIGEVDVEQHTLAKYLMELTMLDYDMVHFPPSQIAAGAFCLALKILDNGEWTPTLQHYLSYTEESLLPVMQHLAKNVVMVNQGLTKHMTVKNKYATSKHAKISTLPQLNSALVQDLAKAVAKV
Experiment: CDK1/Cyclin B kinase assay (FlashPlate or HTRF)
Conditions: Rb protein substrate, Ki=IC50/(1+[S]/Km)
readoutName: Ki (µM)

[[record]]
compound = "O=C1N=C(NCC(c2ccccc2)N2CCOCC2)S/C1=C\\c1ccc2ncccc2c1 (stereo not drawn)"
valueunits = "µM"
endpointvalue = 3.3

[[record]]
compound = "COc1ccccc1CNC1=NC(=O)/C(=C/c2ccc3ncccc3c2)S1"
valueunits = "µM"
endpointvalue = 0.148

[[record]]
compound = "O=C1N=C(N[C@@H]2c3ccccc3C[C@@H]2O)S/C1=C\\c1ccc2ncccc2c1"
valueunits = "µM"
endpointvalue = 3

[[record]]
compound = "O=C1N=C(NC(CO)c2cccs2)S/C1=C\\c1ccc2ncccc2c1 (stereo not drawn)"
valueunits = "µM"
endpointvalue = 0.596

[[record]]
compound = "O=C1N=C(N[C@@H](CO)Cc2ccccc2)S/C1=C\\c1ccc2ncccc2c1"
valueunits = "µM"
endpointvalue = 0.604

[[record]]
compound = "COc1ccc(OC)c(CCNC2=NC(=O)/C(=C/c3ccc4ncccc4c3)S2)c1"
valueunits = "µM"
endpointvalue = 0.838

